Target: human arginase II (Homo sapiens, UniProt P78540)
Sequence (P78540 23-354): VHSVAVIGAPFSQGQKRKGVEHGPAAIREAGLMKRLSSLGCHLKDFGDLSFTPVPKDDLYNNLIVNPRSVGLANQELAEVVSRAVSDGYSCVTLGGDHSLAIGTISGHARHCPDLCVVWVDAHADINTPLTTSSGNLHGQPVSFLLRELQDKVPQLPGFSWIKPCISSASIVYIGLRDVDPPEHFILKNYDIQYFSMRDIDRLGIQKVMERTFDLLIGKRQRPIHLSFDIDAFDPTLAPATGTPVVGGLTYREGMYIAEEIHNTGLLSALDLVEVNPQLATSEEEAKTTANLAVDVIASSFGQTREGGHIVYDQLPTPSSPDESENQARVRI
Experiment: Arginase inhibition, QuantiChrom colorimetric urea assay, IC50 converted to Ki
Assay type: biochemical
Settings: Table 2; pH 9.5; read-out: human arginase II pH 9.5, Ki assigned value
pKi: −log10 of the molar value. Structures can show the parent of a compound that is named as a salt.
MEASURE: pKi

NC(CCCCB(O)O)(CCCN1CCNCC1)C(=O)O (stereo not drawn) [Comparative Example 4, trifluoroacetate salt, reference compound] : 7.30 to 7.96

Query: # lookup: pKi of NC(CCCCB(O)O)(CCCC1CCN(Cc2ccc(F)cc2)CC1)C(=O)O (stereo not drawn) [Comparative Example 3, reference compound]
Result: 7.30 to 7.96

Query: Another compound to look at: NC(CCCCB(O)O)(CCCC1CCNCC1)C(=O)O (stereo not drawn) [Comparative Example 1, reference compound]
Result: > 8.00

Query: Another compound to look at: NC(CCCCB(O)O)(CCCN1CCCCC1c1ccc(F)cc1)C(=O)O (stereo not drawn)
Result: 7.30 to 7.96

Query: Another compound to look at: NC(CCCCB(O)O)(CCCN1CCN(Cc2ccc(F)cc2)CC1)C(=O)O (stereo not drawn)
Result: 7.30 to 7.96

src = patent US9447122B2
